Target chain: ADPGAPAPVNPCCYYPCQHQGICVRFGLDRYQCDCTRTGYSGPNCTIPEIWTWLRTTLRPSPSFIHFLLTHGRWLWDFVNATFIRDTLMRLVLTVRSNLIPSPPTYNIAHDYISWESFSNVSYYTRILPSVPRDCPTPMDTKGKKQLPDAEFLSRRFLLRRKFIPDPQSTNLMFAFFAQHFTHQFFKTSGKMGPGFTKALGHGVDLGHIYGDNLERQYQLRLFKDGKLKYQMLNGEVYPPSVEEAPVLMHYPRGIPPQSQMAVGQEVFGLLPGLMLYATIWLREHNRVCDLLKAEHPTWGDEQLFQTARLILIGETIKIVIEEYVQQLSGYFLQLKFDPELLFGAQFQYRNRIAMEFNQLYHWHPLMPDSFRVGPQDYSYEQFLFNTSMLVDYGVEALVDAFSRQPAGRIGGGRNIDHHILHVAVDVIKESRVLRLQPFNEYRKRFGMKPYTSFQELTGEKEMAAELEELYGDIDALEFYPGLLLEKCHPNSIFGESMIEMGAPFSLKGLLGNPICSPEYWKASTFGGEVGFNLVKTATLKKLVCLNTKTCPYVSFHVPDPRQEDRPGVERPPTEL
pIC50: −log10 of the molar value.
# pIC50 >= 6 gives True, anything below gives False

molecule	group
CCCCC1SC(c2cccc(Oc3ccccc3)c2)N(CCc2ccccn2)C1=O (stereo not drawn)	True
CCCC[C@@H]1S[C@@H](c2cccc(Oc3ccccc3)c2)NC1=O (relative stereo)	False
CCCCC1SC(c2cccc(Oc3ccccc3)c2)N(CCCOc2ccc(C(=O)O)cc2)C1=O (stereo not drawn)	False
CCCC[C@@H]1S[C@H](c2cccc(Oc3ccccc3)c2)N(CCCCCC(=O)OCC)C1=O (relative stereo)	True
CCCCC1SC(c2cccc(Oc3ccccc3)c2)N(CCc2ccccc2)C1=O (stereo not drawn)	False
CCCC[C@@H]1S[C@@H](c2cccc(Oc3ccccc3)c2)N(CCCCc2ccc(C(=O)OCC)cc2)C1=O (relative stereo)	True
CCCC[C@@H]1S[C@H](c2cccc(Oc3ccccc3)c2)N(CCCCc2ccc(C(=O)OCC)cc2)C1=O (relative stereo)	True

---

Here the recorded pIC50 is given for each entry.
Target: 5-lipoxygenase (Homo sapiens, UniProt P09917)
Construct: Polymorphonuclear leukocytes were obtained from whole human blood; endogenous in cells
Sequence (P09917 whole entry): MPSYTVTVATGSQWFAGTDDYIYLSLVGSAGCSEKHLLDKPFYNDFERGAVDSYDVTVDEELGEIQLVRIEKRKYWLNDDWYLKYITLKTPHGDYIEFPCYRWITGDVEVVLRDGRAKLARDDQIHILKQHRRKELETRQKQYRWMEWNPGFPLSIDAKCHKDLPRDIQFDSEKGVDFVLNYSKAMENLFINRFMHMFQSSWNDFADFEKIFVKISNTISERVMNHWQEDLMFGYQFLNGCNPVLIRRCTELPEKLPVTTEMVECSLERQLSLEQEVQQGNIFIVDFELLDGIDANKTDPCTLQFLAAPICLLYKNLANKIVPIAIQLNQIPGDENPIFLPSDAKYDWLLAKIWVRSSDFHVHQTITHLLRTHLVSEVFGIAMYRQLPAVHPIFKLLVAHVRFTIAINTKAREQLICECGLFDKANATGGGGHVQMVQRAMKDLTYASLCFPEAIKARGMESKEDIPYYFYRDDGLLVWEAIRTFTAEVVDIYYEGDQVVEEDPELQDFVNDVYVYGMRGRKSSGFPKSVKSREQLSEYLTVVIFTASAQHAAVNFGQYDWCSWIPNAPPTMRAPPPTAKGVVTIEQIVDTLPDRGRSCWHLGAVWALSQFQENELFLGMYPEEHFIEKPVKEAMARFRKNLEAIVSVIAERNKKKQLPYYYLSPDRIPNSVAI
Test: 5-Lipoxygenase Assay (production of 5-HETE from arachidonic acid in polymorphonuclear leukocytes stimulated by A23187)
Conditions: inhibition of production of 5-HETE, human PMN cells, calcium ionophore A23187, 37° C.
Description: The production of 5-HETE from arachidonic acid in human polymorphonuclear leukocytes stimulated by the calcium ionophore A23187 (Calbiochemicals) was measured by reverse phase high pressure liquid chromatography. […] Addition of substances to the test system that inhibit 5-lipoxygenases cause a decrease in the production of 5-HETE and is thus determined in comparison to reference and control articles also added to the reaction system. […]
pIC50: −log10 of the molar value.
recorded_endpoint: pIC50

compound	result
CCCCC1SC(c2cccc(C(=O)c3ccccc3)c2)N(CCCCc2ccccc2)C1=O (stereo not shown)	~4.00
CCCC[C@@H]1S[C@@H](c2cccc(Oc3ccccc3)c2)NC1=O (relative stereo)	> 5.00
CC1SC(c2cccc(Oc3ccccc3)c2)N(CCCCc2ccccc2)C1=O (stereo not shown)	> 4.70
CCCCC1SC(c2cccc(Oc3ccccc3)c2)N(CCCCCCC(=O)OCC)C1=O (stereo not shown)	~5.00
CCCCC1SC(c2cccc(Oc3ccccc3)c2)N(CCCCc2ccccc2)C1=O (stereo not shown)	< 4.00
CCCC[C@@H]1S[C@H](c2cccc(Oc3ccccc3)c2)N(CCCCCC(=O)OCC)C1=O (relative stereo)	~4.82
CCCCC1SC(c2cccc(Oc3ccccc3)c2)N(CCCCC(=O)O)C1=O (stereo not shown)	~4.82
